- system: T1, extracellular domain of mouse ROR1 (mouse, UniProt Q9Z139 30-406)
- T1 construct: also called mROR1; mROR1 protein
- T1 sequence (Q9Z139 30-406 limits assumed): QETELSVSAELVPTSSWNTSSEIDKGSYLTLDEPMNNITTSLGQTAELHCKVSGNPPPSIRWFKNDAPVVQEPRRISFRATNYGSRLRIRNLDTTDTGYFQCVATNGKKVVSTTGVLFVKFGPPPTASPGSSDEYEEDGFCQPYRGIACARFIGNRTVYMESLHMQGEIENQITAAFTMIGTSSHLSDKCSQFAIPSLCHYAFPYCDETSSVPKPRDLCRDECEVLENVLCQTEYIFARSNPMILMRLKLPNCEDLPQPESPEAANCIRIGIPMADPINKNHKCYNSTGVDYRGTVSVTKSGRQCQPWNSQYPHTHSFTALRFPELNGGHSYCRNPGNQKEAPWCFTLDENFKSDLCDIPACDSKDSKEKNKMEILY
- protocol-description: blot of recombinant protein, non-denaturing gel
- Description: Schematics of the chimeric constructs of the extracellular portion of ROR1 used to map the domain of hROR1 bound by each of the mAb in this disclosure. […] (B) Each of these recombinant proteins were separated in non-denaturing polyacrylamide gel, transferred onto nylon, probed with the anti-hROR1 mAb indicated on the left, and detected with an anti-mouse IgG antibody conjugated with horse radish peroxidase. […]
experimental-readout: binding result

UC-107 (antibody, V domains shown, Mouse-derived anti-hROR1 mAb, detected with anti-mouse IgG; also called UC-107 mAb) VH: QIQLVQSGPELKKPGETVKISCKASGYTFTNYPIHWVKQAPGKGLKWMGWINTYSGVPTYADDFKGRFAFSLETSANTAYLQLNNLRNEDMATYFCARGDSSLFDYWGQGTTLTVSS VL: DVQMIQSPSSLSASLGERVSLTCRASQEISGYLIWLQQKPDGTITRLIYAASTLDSGVPKRFSGSRSGSDYSLTISSLESEDFADYYCLQYTSYPLTFGAGTKLELKR :: no binding
UC-101 (antibody, V domains shown, Mouse-derived anti-hROR1 mAb, detected with anti-mouse IgG; also called UC-101 mAb) VH: EVQLLETGGGLVQPGGSRKLSCVASGFSFSSYGMHWVRQAPEKGLEWVAYIGGTSNTIYFADTVKGRFTISRDNAKNTLFLQMASLRSEDTAMYYCARTNLLGMDYWGQGTSVTVSS VL: QIVLTQSPTIMSASPGEKVTMTCSASSSVSDMYWYQQKPGSSPRLLIYDTSNLASGVPVRFSGSGSGTSYSLTISRMEAEDAATYYCQQWISYTFGGGTKLEIKR :: no binding
UC-103 (antibody, V domains shown, Mouse-derived anti-hROR1 mAb, detected with anti-mouse IgG; also called UC-103 mAb) VH: EIQLQQSGPVLVKPGASVKVSCKASGYAFTAYNIHWVRQSHGKRLEWIGSFDPYDGGSSYNQKFKDKATLTVDKSSTTAYMHLNSLTSEDSAVYYCARGWYYFDYWGHGTTLTVSS VL: DVQITQSPSYLAASPGETITINCRASKSISKYLAWYQEKPGKTNKLLIYSGSTLQSGIPSRFRGSGSGTDFTLTISSLEPEDFAMYYCQQHDESPYTFGEGTKLEIKR :: no binding
